Reference source: patent US8168659B2

target: Human CB2 (Homo sapiens); construct: PerkinElmer Life Sciences, Boston, Mass; experiment: Agonist GTP-binding, Sf9 membranes; conditions: read-out: Agonist Potency EC50
Sequence (P34972 whole entry): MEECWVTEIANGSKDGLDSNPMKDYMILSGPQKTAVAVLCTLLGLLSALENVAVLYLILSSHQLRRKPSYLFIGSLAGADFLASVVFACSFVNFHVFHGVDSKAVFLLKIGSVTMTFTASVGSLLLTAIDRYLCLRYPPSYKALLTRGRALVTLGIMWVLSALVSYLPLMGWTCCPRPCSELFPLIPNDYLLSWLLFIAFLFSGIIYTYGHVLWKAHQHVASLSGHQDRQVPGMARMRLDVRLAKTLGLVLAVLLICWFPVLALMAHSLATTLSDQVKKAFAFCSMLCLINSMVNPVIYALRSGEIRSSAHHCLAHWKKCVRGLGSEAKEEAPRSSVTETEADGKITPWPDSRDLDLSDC
pEC50: −log10 of the molar value.
measure-name: pEC50

Reported pEC50 for CC(C)(N[C@@H]1C[C@H](c2ccccc2)N(c2ccc(OC(F)(F)F)cc2)C1=O)c1ccc(C(F)(F)F)nc1.Cc1ccc(S(=O)(=O)O)cc1 [Example 49, tosylate] : what is it?
< 5.00

---

Assignment: determine reported Bioavail. Rat for the given molecules.
assay: Bioavailability rat; type: in vivo
Counter-ions that a name gives are not always drawn.
Give bare numbers, in %.

Solved entries (count: 3):
>  <molecule>
CC(C)(N[C@@H]1C[C@H](c2cccc(OC(F)(F)C(F)F)c2)N(c2ccc(Cl)cc2)C1=O)c1ccc(C(F)(F)F)nc1

>  <Bioavail. Rat, %>
36

$$$$
>  <molecule>
Cc1cccc([C@H]2C[C@@H](NC(C)(C)c3ccc(C(F)(F)F)nc3)C(=O)N2c2ccc(OC(F)(F)F)cc2)c1 [Example 1, tosylate]

>  <Bioavail. Rat, %>
7

$$$$
>  <molecule>
CC(C)(N[C@@H]1C[C@H](c2cccc(OC(F)(F)C(F)F)c2)N(c2ccc(C(F)(F)F)cc2)C1=O)c1ccc(C(F)(F)F)nc1

>  <Bioavail. Rat, %>
77

$$$$

// below: Bioavail. Rat requested for another molecule
I am curious: what Bioavail. Rat value has been reported for CC(C)(N[C@@H]1C[C@H](c2ccccc2)N(c2ccc(OC(F)(F)F)cc2)C1=O)c1ccc(C(F)(F)F)nc1.Cc1ccc(S(=O)(=O)O)cc1 ?
36

---

experiment: Bioavailability dog; assay type: in vivo
Counter-ions that a name gives are not always drawn.
measure-name: Bioavail. Dog (%)
Give bare numbers, in %.

Below: 3 molecules and their reported Bioavail. Dog.
>  <molecule>
CC(C)(N[C@@H]1C[C@H](c2cccc(OC(F)(F)C(F)F)c2)N(c2ccc(Cl)cc2)C1=O)c1ccc(C(F)(F)F)nc1

>  <measure-name>
Bioavail. Dog

>  <observed-result>
47

$$$$
>  <molecule>
CC(C)(N[C@@H]1C[C@H](c2cccc(OC(F)(F)C(F)F)c2)N(c2ccc(C(F)(F)F)cc2)C1=O)c1ccc(C(F)(F)F)nc1

>  <measure-name>
Bioavail. Dog

>  <observed-result>
38

$$$$
>  <molecule>
Cc1cccc([C@H]2C[C@@H](NC(C)(C)c3ccc(C(F)(F)F)nc3)C(=O)N2c2ccc(OC(F)(F)F)cc2)c1 [Example 1, tosylate]

>  <measure-name>
Bioavail. Dog

>  <observed-result>
36

$$$$

Continue with the molecule presented below.
// Bioavail. Dog lookup, key: CC(C)(N[C@@H]1C[C@H](c2ccccc2)N(c2ccc(OC(F)(F)F)cc2)C1=O)c1ccc(C(F)(F)F)nc1.Cc1ccc(S(=O)(=O)O)cc1
40
